Values compiled from patent US11439148B2.

Each entry below carries its recorded Mean % Herbicidal Activity Average over all Species.
- System: four weed species (ABUTH, CHEAL, DIGSA, SETVI)
- procedure.text: Adjuvant efficacy with nicosulfuron, glasshouse spray test, average over all species
- Type: in vivo
- condition.set: nicosulfuron WG, mean over 15 and 60 g/ha, adjuvant 0.2% v/v (none in No Adjuvant rows), 21 days, average of ABUTH
- Experimental: The efficacy of adjuvants 1-12 as adjuvants for the herbicide nicosulfuron were tested in a glasshouse against four weed species sown into standard soil in pots and cultivated under controlled conditions in a glasshouse (at 24/18° C. day/night; 16 hours light; 65% humidity). […] The spray tests were also carried out using nicosulfuron in conjunction with adjuvants 1-12. […] The efficacy of the herbicide was assessed visually and expressed as a percentage of the leaf area killed. […]
# unit: % | format: bare number

Field: example entries. Status: answers known.
INSERT INTO measurements (compound_structure, measured_result) VALUES
  ('CCCCCCCCCOc1cc(OCCOCCOCCOCCOCCOCCOCCOC)ncn1', 73),
  ('CCCCCCCCC=CCCCCCCCCOc1cc(OCCOCCOCCOCCOCCOCCOCCOCCOCCOCCOCCOCCOCCOCCOCCOCCOCCOCCOCCOCCOC)ncn1', 82);

Alright, here's another compound for you.
Reported Mean % Herbicidal Activity Average over all Species (four weed species (ABUTH, CHEAL, DIGSA, SETVI)) for entry "CCCCCCOc1cc(OCCOCCOC)ncn1" is 83

====

- System: Brachiaria platyphylla (BRAPP)
- procedure.text: Adjuvant efficacy with mesotrione, glasshouse spray test
- Assay type: in vivo
- condition.set: mesotrione SC, mean over 30 and 60 g/ha and 3 replicates; adjuvant 0.2% v/v (none in No Adjuvant rows); % leaf area killed, 21 days after application; Tests 1-3 separate runs
property.label: Mean % Herbicidal Activity BRAPP (%)
Enter your answer as a number in %; do not include the unit.

Study these solved cases before continuing.
INSERT INTO measurements (compound_structure, subject_of_test, property_label, measured_result) VALUES
  ('CCCCCCOc1cc(OCCOCCOCCOCCOCCOCCOCCOCCOCCOCCOCCOCCOCCOCCOCCOCCOCCOCCOCCOCCOC)ncn1', 'Brachiaria platyphylla (BRAPP)', 'Mean % Herbicidal Activity BRAPP', 38),
  ('CCCCCCCCCOc1cc(OCCOCCOCCOCCOCCOCCOCCOCCOCCOCCOC)ncn1', 'Brachiaria platyphylla (BRAPP)', 'Mean % Herbicidal Activity BRAPP', 48),
  ('CCCCCCCCCCCCOc1cc(OCCOCCOCCOCCOCCOCCOCCOCCOCCOCCOC)ncn1', 'Brachiaria platyphylla (BRAPP)', 'Mean % Herbicidal Activity BRAPP', 68);

Moving on to another compound below.
Reported Mean % Herbicidal Activity BRAPP for "CCCCCCCCC=CCCCCCCCCOc1cc(OCCOCCOCCOCCOCCOCCOCCOCCOCCOCCOC)ncn1" was 61

====

- Test system: Brachiaria platyphylla (BRAPP)
- procedure.text: Adjuvant efficacy with mesotrione, glasshouse spray test
- Type: in vivo
- condition.set: mesotrione SC, mean over 30 and 60 g/ha and 3 replicates; adjuvant 0.2% v/v (none in No Adjuvant rows); % leaf area killed, 21 days after application; Tests 1-3 separate runs
Item-by-item account of Mean % Herbicidal Activity BRAPP
Give the value, in units of %, as a plain number.

INSERT INTO measurements (compound, property_label, value_unit, measured_result) VALUES
  ('CCCCCCCCCCCCOc1cc(OCCOCCOCCOCCOCCOCCOCCOC)ncn1', 'Mean % Herbicidal Activity BRAPP', '%', 53),
  ('CCCCCCCCCOc1cc(OCCOCCOCCOCCOCCOCCOCCOC)ncn1', 'Mean % Herbicidal Activity BRAPP', '%', 43),
  ('CCCCCCCCC=CCCCCCCCCOc1cc(OCCOCCOC)ncn1', 'Mean % Herbicidal Activity BRAPP', '%', 69),
  ('CCCCCCOc1cc(OCCOCCOC)ncn1', 'Mean % Herbicidal Activity BRAPP', '%', 53),
  ('CCCCCCOc1cc(OCCOCCOCCOCCOCCOCCOCCOCCOCCOCCOC)ncn1', 'Mean % Herbicidal Activity BRAPP', '%', 52);

Reported Mean % Herbicidal Activity BRAPP ( "CCCCCCCCC=CCCCCCCCCOc1cc(OCCOCCOCCOCCOCCOCCOCCOCCOCCOCCOCCOCCOCCOCCOCCOCCOCCOCCOCCOCCOC)ncn1" ) = 58

Documented Mean % Herbicidal Activity BRAPP of CCCCCCCCCCCCOc1cc(OCC(C)OCC(C)OCC(C)OC)ncn1 (stereo not shown) : 69
